Test: Cytotoxicity against human HL60 cells after 48 hrs by MTT assay
Type: functional, cell-based
Settings: HL-60, 48 h
recordedEndpoint: IC50

[[record]]
structure = "O=c1ccc2cc(OCc3cc(-c4ccc(Cl)cc4)no3)ccc2o1"
recordedendpoint = "IC50"
reportedmeasurement = "44.6 µM"

[[record]]
structure = "O=c1ccc2cc(OCc3cn(-c4ccccc4[N+](=O)[O-])nn3)ccc2o1"
recordedendpoint = "IC50"
reportedmeasurement = "44.6 µM"

[[record]]
structure = "O=c1ccc2cc(OCc3cc(-c4ccc5ccccc5c4)no3)ccc2o1"
recordedendpoint = "IC50"
reportedmeasurement = "55.7 µM"

[[record]]
structure = "N#Cc1ccccc1-n1cc(COc2ccc3oc(=O)ccc3c2)nn1"
recordedendpoint = "IC50"
reportedmeasurement = "52.1 µM"

[[record]]
structure = "O=c1ccc2cc(OCc3cn(-c4cccc([N+](=O)[O-])c4)nn3)ccc2o1"
recordedendpoint = "IC50"
reportedmeasurement = "20.5 µM"

[[record]]
structure = "COc1ccc(-n2cc(COc3ccc4oc(=O)ccc4c3)nn2)cc1"
recordedendpoint = "IC50"
reportedmeasurement = "46.4 µM"


// below: IC50 requested for another molecule
Kindly note the recorded IC50 for CC(=O)Nc1ccc(-n2cc(COc3ccc4oc(=O)ccc4c3)nn2)cc1 , which is 40.4 µM

---

IC50 listing for selected compounds.
Test: Cytotoxicity against human HL60 cells after 48 hrs by MTT assay
Assay type: functional, cell-based
Details: HL-60, 48 h

[[record]]
structure = "O=c1ccc2cc(OCc3cn(-c4ccccc4)nn3)ccc2o1"
reportedmeasurement = "41.6 µM"

[[record]]
structure = "O=c1ccc2cc(OCc3cc(-c4cccc(Cl)c4)no3)ccc2o1"
reportedmeasurement = "50.6 µM"

[[record]]
structure = "COc1ccccc1-n1cc(COc2ccc3oc(=O)ccc3c2)nn1"
reportedmeasurement = "55.2 µM"


Next up:
Per the record, O=c1ccc2cc(OCc3cc(-c4ccccc4)no3)ccc2o1 has IC50 of 43.3 µM
